# Assay target: T1, human calcitonin receptor (human, UniProt P30988 25-474)
# T1 construct: whole, on cells; Assay VII: membranes on SPA beads; also called hCT-R; hCTR
# T1 sequence (looked up): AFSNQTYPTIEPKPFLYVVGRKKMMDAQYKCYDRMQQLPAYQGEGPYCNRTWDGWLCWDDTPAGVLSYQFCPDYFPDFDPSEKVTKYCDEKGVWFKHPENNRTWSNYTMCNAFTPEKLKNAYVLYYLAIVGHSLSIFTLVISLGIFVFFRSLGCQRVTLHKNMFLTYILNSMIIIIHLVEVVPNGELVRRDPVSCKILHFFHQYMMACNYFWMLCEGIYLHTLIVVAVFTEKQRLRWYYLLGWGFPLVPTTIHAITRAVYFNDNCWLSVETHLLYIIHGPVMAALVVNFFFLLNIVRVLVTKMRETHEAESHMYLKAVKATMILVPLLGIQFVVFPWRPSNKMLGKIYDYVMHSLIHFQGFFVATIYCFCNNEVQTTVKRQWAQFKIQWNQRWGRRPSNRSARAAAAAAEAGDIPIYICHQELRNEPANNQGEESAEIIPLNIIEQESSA
# Measurement description: SPA competition vs 125I-calcitonin, membranes with human CTR (Assay VII)
Numbered stars: 1 amine (or outer) side, 2 acyl side, 3 side chain; on linkers, the order of the positions; unused ones are H or OH. Side chains are listed from the residue outwards. * marks the point of attachment. C20 diacid = O=C(O)CCCCCCCCCCCCCCCCCCC(=O)*; C18 diacid = O=C(O)CCCCCCCCCCCCCCCCC(=O)*; C16 diacid = O=C(O)CCCCCCCCCCCCCCC(=O)*; γGlu = O=C(O)[C@H](CCC(=O)[*:2])N[*:1]; C14 diacid = O=C(O)CCCCCCCCCCCCC(=O)*; AEEA = NCCOCCOCC(=O)O
Assign labels as follows, please: yes (1) for IC50 below 0.08 nM; no (0) for IC50 equal to or exceeding 0.08 nM.

{C20 diacid-γGlu-AEEA}-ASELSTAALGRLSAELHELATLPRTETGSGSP-NH2 (mimylin derivative; des1 = residue 1 deleted; also called Ex. #41; 41) [[N-terminal(C20 diacid-gGlu-OEG), des1, 30S, 31G]mimylin]: no (0)
{C16 diacid}-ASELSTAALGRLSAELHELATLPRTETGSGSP-NH2 (mimylin derivative; des1 = residue 1 deleted; also called Ex. #49; 49) [[N-terminal(C16 diacid), des1, 30S, 31G]mimylin]: yes (1)
{C14 diacid-γGlu}-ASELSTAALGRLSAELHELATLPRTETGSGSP-NH2 (mimylin derivative; des1 = residue 1 deleted; also called Ex. #50; 50) [[N-terminal(C14 diacid-gGlu), des1, 30S, 31G]mimylin]: yes (1)

Query :: Problem: For the binder {C16 diacid-γGlu}-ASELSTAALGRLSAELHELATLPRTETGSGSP-NH2 (mimylin derivative; des1 = residue 1 deleted; also called Ex. #47; 47) [[N-terminal(C16 diacid-gGlu), des1, 30S, 31G]mimylin] , is IC50 under 0.08 nM?
Result :: yes (1)

Query :: Problem: For the binder Ac-ASK([γGlu-C20 diacid])LSTAALGRLSAELHELATLPRTETGSGSP-NH2 (mimylin derivative; des1 = residue 1 deleted; also called Ex. #68; 68) [[N-terminal(acetyl), des1, 4K(C20 diacid-gGlu), 30S, 31G]mimylin] , is IC50 under 0.08 nM?
Result :: yes (1)

Query :: Problem: For the binder {C20 diacid-γGlu-AEEA-AEEA-AEEA}-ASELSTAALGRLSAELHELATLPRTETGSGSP-NH2 (mimylin derivative; des1 = residue 1 deleted; also called Ex. #43; 43) [[N-terminal(C20 diacid-gGlu-3xOEG), des1, 30S, 31G]mimylin] , is IC50 under 0.08 nM?
Result :: yes (1)

Query :: Problem: For the binder {C18 diacid-γGlu}-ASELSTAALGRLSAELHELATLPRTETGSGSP-NH2 (mimylin derivative; des1 = residue 1 deleted; also called Ex. #46; 46) [[N-terminal(C18 diacid-gGlu), des1, 30S, 31G]mimylin] , is IC50 under 0.08 nM?
Result :: no (0)

Query :: Problem: For the binder Ac-ASELSTAALGRLSAELHK([γGlu-C20 diacid])LATLPRTETGSGSP-NH2 (mimylin derivative; des1 = residue 1 deleted; also called Ex. #70; 70) [[N-terminal(acetyl), des1, 19K(C20 diacid-gGlu), 30S, 31G]mimylin] , is IC50 under 0.08 nM?
Result :: yes (1)

Query :: Problem: For the binder {C20 diacid-γGlu}-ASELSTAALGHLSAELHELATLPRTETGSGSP-NH2 (mimylin derivative; also called Ex. #72; 72) [[N-terminal(C20 diacid-gGlu), des1, 12H, 30S, 31G]mimylin] , is IC50 under 0.08 nM?
Result :: no (0)

Query :: Problem: For the binder Ac-ASELSTAALGRLSAK([γGlu-C20 diacid])LHELATLPRTETGSGSP-NH2 (mimylin derivative; des1 = residue 1 deleted; also called Ex. #69; 69) [[N-terminal(acetyl), des1, 16K(C20 diacid-gGlu), 30S, 31G]mimylin] , is IC50 under 0.08 nM?
Result :: yes (1)

Query :: Problem: For the binder {C20 diacid-γGlu-AEEA-AEEA}-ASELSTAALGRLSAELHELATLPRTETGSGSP-NH2 (mimylin derivative; des1 = residue 1 deleted; also called Ex. #42; 42) [[N-terminal(C20 diacid-gGlu-2xOEG), des1, 30S, 31G]mimylin] , is IC50 under 0.08 nM?
Result :: yes (1)

Query :: Problem: For the binder {C14 diacid}-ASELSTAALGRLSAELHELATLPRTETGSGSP-NH2 (mimylin derivative; des1 = residue 1 deleted; also called Ex. #51; 51) [[N-terminal(C14 diacid), des1, 30S, 31G]mimylin] , is IC50 under 0.08 nM?
Result :: no (0)

Query :: Problem: For the binder {C20 diacid-γGlu-AEEA-AEEA-AEEA-AEEA-AEEA}-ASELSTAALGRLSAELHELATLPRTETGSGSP-NH2 (mimylin derivative; des1 = residue 1 deleted; also called Ex. #45; 45) [[N-terminal(C20 diacid-gGlu-5xOEG), des1, 30S, 31G]mimylin] , is IC50 under 0.08 nM?
Result :: no (0)

Query :: Problem: For the binder {C18 diacid}-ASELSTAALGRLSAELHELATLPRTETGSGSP-NH2 (mimylin derivative; des1 = residue 1 deleted; also called Ex. #48; 48) [[N-terminal(C18 diacid), des1, 30S, 31G]mimylin] , is IC50 under 0.08 nM?
Result :: yes (1)

Data credit: patent US20160272683A1
